# test.target: HasAp (Pseudomonas aeruginosa, UniProt G3XD33, H83A)
# test.description: biochemical
quantity.name: pKd
pKd field: float, defined as -log10 of concentration (mol/L).

Dear colleague, I am looking for the recorded pKd of the following molecule: C=CC1=C(C)C2=Cc3c(C=C)c(C)c4[n]3[Fe]([Cl])[n]3c(c(C)c(CCC(=O)O)c3=CC3=NC(=C4)C(C)=C3CCC(=O)O)=CC1=N2
4.52

* * *

# test.target: HasAp (Pseudomonas aeruginosa, UniProt G3XD33, Y75A)
# test.description: biochemical
quantity.name: Kd (µM)
Entry rule: numbers only, all in µM.

Dear colleague, I am looking for the recorded Kd of the following molecule: C=CC1=C(C)C2=Cc3c(C=C)c(C)c4[n]3[Fe]([Cl])[n]3c(c(C)c(CCC(=O)O)c3=CC3=NC(=C4)C(C)=C3CCC(=O)O)=CC1=N2
129
